assayEndpoint: SOLUBILITY AT ROOM TEMPERATURE (22-24° C.), In water (Mg/L)
All answers are understood in Mg/L, so give the number only.

Sample records with SOLUBILITY AT ROOM TEMPERATURE (22-24° C.), In water:
{"compound": "CC(=O)C(=O)O [Pyruvate, strontium pyruvate]", "dataValue": 2204}
{"compound": "O=C([O-])/C=C\\C(=O)[O-].[Sr+2] [Maleate, strontium maleate]", "dataValue": 3002}
{"compound": "O=C([O-])/C=C/C(=O)[O-].[Sr+2] [Fumerate, strontium fumarate]", "dataValue": 571}

Note: attention shifts to another entry.
Problem: Given N#Cc1c(N(CC(=O)[O-])CC(=O)[O-])sc(C(=O)[O-])c1CC(=O)[O-].[Sr+2].[Sr+2] [Ranelate, reference compound] , state its recorded SOLUBILITY AT ROOM TEMPERATURE (22-24° C.), In water.
Result: 760

Ref: patent US20130071496A1
